Origin of the recorded values: PubChem BioAssay AID179

system: CEM cells HIV-1 protection, formazan growth assay; assay: NCI AIDS Antiviral Assay
value-kind: EC50

Any idea what its EC50 is? The compound is CNC(=O)NC1ON=C(c2ccccc2)C1C(=O)NC (configuration not stated)
> 200 µM

Any idea what its EC50 is? The compound is O=C1N/C(=N\N=C\c2ccccc2)C(c2ccccc2)O1 (configuration not stated)
> 200 µM

Any idea what its EC50 is? The compound is O=c1nc2n(c3nsnc13)CCO2
> 132 µM

Any idea what its EC50 is? The compound is CN(C)C(=O)c1ccc(N=Nc2c(O)c3ccccc3[nH]c2=O)cc1
> 200 µM

Any idea what its EC50 is? The compound is O=c1cc(Cl)c(Cl)nn1-c1ccccc1
> 56.2 µM

Any idea what its EC50 is? The compound is COC(=O)C1C(O)CC(c2ccccn2)N(Cc2ccccc2)C1c1ccccn1 (configuration not stated)
> 89.1 µM

Any idea what its EC50 is? The compound is COc1cc(OC)cc(OCc2ccc3nc(-c4ccccc4)c(Cl)nc3c2)c1
> 100 µM

Any idea what its EC50 is? The compound is CC1=Nn2c(nnc2-c2ccccc2Cl)NC(C)(C)C1
> 447 µM

Any idea what its EC50 is? The compound is CC1C(c2ccccc2)SC(=N)N1C (configuration not stated)
> 417 µM

Any idea what its EC50 is? The compound is COC1OC(COC(=O)NCCCCC(=O)C(F)(F)C(F)(F)C(F)(F)C(F)(F)C(F)(F)C(F)(F)C(F)(F)F)C(O)C(O)C1O (configuration not stated)
> 200 µM

Any idea what its EC50 is? The compound is SC1N=C(c2ccco2)N2C(S)N=C(c3ccccc3)N12 (configuration not stated)
> 200 µM

Any idea what its EC50 is? The compound is Nc1nc(Cl)c2ncn(C3OC(CO)CC3F)c2n1 (configuration not stated)
> 49 µM

Any idea what its EC50 is? The compound is CCN(CC)C(=O)N1CN(c2ccccc2)C2(CCN(CCCSc3ccc(F)cc3)CC2)C1=O
> 200 µM

Any idea what its EC50 is? The compound is CCOC(=O)C(=Cc1ccccc1[N+](=O)[O-])C(=O)OCC
> 324 µM

Any idea what its EC50 is? The compound is CC(=O)OCc1cc(=O)n2c([nH]c3ccccc32)c1C#N
> 20 µM

Any idea what its EC50 is? The compound is COC1OOC(OC)c2ccccc2-c2ccccc21 (configuration not stated)
> 200 µM

Any idea what its EC50 is? The compound is CNC(=O)CCC(NC(C)=O)C(=O)NC(Cc1ccc(NC(=O)CCCCC(C)=O)cc1)C(=O)NC(CCC(=O)NC)C(=O)NC (configuration not stated)
> 200 µM

Any idea what its EC50 is? The compound is CCOC(=O)C1C=C1C(C)(C)O (configuration not stated)
> 151 µM

Any idea what its EC50 is? The compound is CN(C)CCNC(=O)c1cccc(C(=O)Nc2ccccc2)c1[N+](=O)[O-]
> 200 µM

Any idea what its EC50 is? The compound is CC(C)(C)C1CC[C@H]2c3c([nH]c4ccc(Br)cc34)[C@H]3C(=O)N(c4ccccc4)C(=O)[C@H]3[C@H]2C1 (some centres not stated)
> 7.24 µM

Any idea what its EC50 is? The compound is COc1ccc(C[C@H](N)C(=O)N2C[C@@H](CO)C[C@@H](n3cnc4c(N(C)C)ncnc43)C2)cc1
> 275 µM

Any idea what its EC50 is? The compound is CC(=O)Nc1ccc(Nc2nc(=O)[nH]c(=O)[nH]2)cc1
> 200 µM

###

tested on: CEM cells HIV-1 protection, formazan growth assay; test: NCI AIDS Antiviral Assay
value-kind: EC50

Any idea what its EC50 is? The compound is O=C(CCCCCCCCC(=O)N1C(=O)CC(=O)N(c2ccc(Cl)cc2)C1=S)N1C(=O)CC(=O)N(c2ccc(Cl)cc2)C1=S
> 200 µM

Any idea what its EC50 is? The compound is CC(C)(C)OC(=O)C1C(=O)C(C(=O)OC(C)(C)C)C2(C)C(C(=O)OC(C)(C)C)C(=O)C(C(=O)OC(C)(C)C)C12C (stereo not given)
> 31.6 µM

Any idea what its EC50 is? The compound is COC(=O)C1Cc2cc3c(cc2C1=O)CCC3 (stereo not given)
> 200 µM

Any idea what its EC50 is? The compound is CCn1cnnc1-c1nsc2ccccc12
> 81.3 µM

Any idea what its EC50 is? The compound is CCCCCc1cc(OC(=O)c2c(O)cc(OC)cc2CCCCC)cc(O)c1C(=O)O
> 295 µM

###

test system: CEM cells HIV-1 protection, formazan growth assay; assay: NCI AIDS Antiviral Assay
Provide the reported EC50 of each item.

Any idea what its EC50 is? The compound is O=C1NS(=O)(=O)c2ccccc21.[Cu+2]
> 1150 µM

Any idea what its EC50 is? The compound is O=C(N/S(=N/S(=O)(=O)c1ccc(Br)cc1)C(Cl)(Cl)Cl)c1ccccc1 (stereo unspecified)
> 200 µM

Any idea what its EC50 is? The compound is CCOC(=O)c1c(NS(=O)(=O)c2ccc(C)cc2)sc(C)c1C
> 200 µM

Any idea what its EC50 is? The compound is CCCNC(C#N)c1ccc(OCCCCCCCCCCOc2ccc(C(C#N)NCCC)cc2)cc1 (stereo unspecified)
> 200 µM

Any idea what its EC50 is? The compound is Cc1ccc2c(c1S)C(=O)c1ccccc1C2=O
> 117 µM

Any idea what its EC50 is? The compound is CCCC[N+](CCCC)=c1cc(-c2ccc(Cl)cc2)ss1
> 20 µM

###

test system: CEM cells HIV-1 protection, formazan growth assay; assay: NCI AIDS Antiviral Assay; details: measured here: growth of uninfected CEM cells
pIC50: −log10 of the molar value.
Provide the reported pIC50 of each item.

Any idea what its pIC50 is? The compound is COc1ccc2c(c1OC)C13CCCC[C@H]1C(C2)[N+](C)(C)CC3 (stereo partly specified)
< 3.25

Any idea what its pIC50 is? The compound is CC(=O)c1cc2ccccc2n(O)c1=N
< 3.70

Any idea what its pIC50 is? The compound is NCC(=O)Nc1ccc(S(=O)(=O)O)c2cc(S(=O)(=O)O)cc(S(=O)(=O)O)c12
< 3.70

Any idea what its pIC50 is? The compound is CCCCCCCCCCCCCCCCSS(=O)(=O)CCCCCCCC
< 4.13

Any idea what its pIC50 is? The compound is O=C(/C(=C/c1ccccc1)c1ccccc1)N1c2ccccc2CC1c1c[nH]c2ccccc12 (stereo unspecified)
5.07

Any idea what its pIC50 is? The compound is Nc1nc(-c2ccccc2)nc2oc(-c3cccs3)nc12
< 3.70

Any idea what its pIC50 is? The compound is CCOC(=O)c1c(NS(=O)(=O)c2ccc(C)cc2)sc(C)c1C
4.47

Any idea what its pIC50 is? The compound is CS(=O)(=O)NC12CCC(c3ccccc31)c1ccccc12
< 3.70

Any idea what its pIC50 is? The compound is N#Cc1c(NC(=O)C(F)(F)F)sc2c3c(=O)c4ccccc4c(=O)c=3oc3ccccc3c12
4.76

Any idea what its pIC50 is? The compound is Cc1cn(C2CCC(CO)(CO)CC2O)c(=O)[nH]c1=O (stereo unspecified)
< 3.06

Any idea what its pIC50 is? The compound is CCCCc1c2c(nc3c1CCc1cc(C=O)c(N)nc1-3)/C(=C/c1ccccc1)CCC2
< 5.36

###

tested on: CEM cells HIV-1 protection, formazan growth assay; test: NCI AIDS Antiviral Assay;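 active = compounds giving half or more protection of infected cells from virus-caused growth loss, again on retest; inactive = the rest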
The categories you may choose from are 1 for active, 0 for inactive

Status in this test for CCCCCCCCCCCCCCCCCCOCC(O)COP(=O)(O)OCC1OC(n2cc(C)c(=O)[nH]c2=O)CC1N=[N+]=[N-] (stereo unspecified) ?
0

Status in this test for O/N=C1/CCCCCC1NO (stereo unspecified) ?
0

Status in this test for CC1=N/C(=C\c2ccc(C#N)cc2)C(=O)O1 ?
0

Status in this test for O=C(NS(=O)(=O)Nc1ccccc1)OC(c1ccccc1)c1ccccc1 ?
0

Status in this test for O=c1c(O)c(O)c1=O.[NH2-].[NH2-].[NH2-].[NH2-].[NH2-].[Ru+5] ?
0

Status in this test for N#CC(C(=O)C(N)=O)c1ccccc1Cl (stereo unspecified) ?
0

Status in this test for Nc1ccc2nc3ccc(O)cc3nc2c1 ?
0

Status in this test for C/C=C1/CN2CCC34C5=CC(=O)C(c6cc7c(cc6OC)N(C)C6=C(C(=O)OC)CC8(CC)CCCN9CCC67C98)=CC5=NC23CCC1C4C(=O)OC (stereo unspecified) ?
0

Status in this test for COc1cc2c(cc1OC)C(=O)Cc1ccc3c(c1CNCC2)OCO3 ?
0

Status in this test for COC12C=CC(CC1)C(C)(C)C2O (stereo unspecified) ?
0

Status in this test for CCOC(=O)N1C2c3ccccc3C(c3ccccc32)N1C(=O)OCC ?
0

Status in this test for COc1ccc(/C(C#N)=C/c2ccccc2OC)cc1 ?
0

Status in this test for COC1CC(C)(NC(=O)C(F)(F)F)C2OC(c3ccccc3)OCC2O1 (stereo unspecified) ?
0

Status in this test for O=C(COc1ccc(Cl)cc1)N1N=C(c2ccc([N+](=O)[O-])o2)CC1(O)c1ccccc1 (stereo unspecified) ?
0

Status in this test for Cc1cn(C2CC(N=[N+]=[N-])C(COC(=O)C(O)[C@@]3(O)CC[C@H]4[C@@H]5CCC6=CC(=O)C=C[C@]6(C)[C@H]5[C@@H](O)C[C@@]43C)O2)c(=O)[nH]c1=O (stereo partly specified) ?
1

Status in this test for O=S(=O)(c1ccc(NC(=S)Nc2ccccc2)cc1)c1ccc(NC(=S)Nc2ccccc2)cc1 ?
0

Status in this test for Cn1c(=O)cc(O)c2ccccc21 ?
0

Status in this test for O=C(O)CN(CC(=O)O)CC(O)CN(CC(=O)O)CC(=O)O ?
0

Status in this test for CC12c3ccccc3C(C)(c3c1ccc1ccccc31)C1C(=O)OC(=O)C12 (stereo unspecified) ?
0

Status in this test for COc1ccccc1/C=N/Nc1nnc2c3ccccc3c3ncccc3c2n1 ?
0

Status in this test for CC[C@]1(Cc2ccc(OC)c(OC)c2)C=[N+]([O-])O[C@H](OC2CCCCC2c2ccccc2)[C@@H]1OC(C)=O (stereo partly specified) ?
0
